Cited source: patent US12448399B2

Target: KRas-G12D (Homo sapiens, UniProt P01116, G12D)
Construct: insert the HiBiT tag onto the N-terminus of one or more of the endogenous KRas alleles; host or cells: AsPC-1 HiBiT-KRasG12D knock-in clone (one tagged allele, two untagged KRasG12D alleles)
Sequence (P01116 1-188 isoform P01116-2 G12D): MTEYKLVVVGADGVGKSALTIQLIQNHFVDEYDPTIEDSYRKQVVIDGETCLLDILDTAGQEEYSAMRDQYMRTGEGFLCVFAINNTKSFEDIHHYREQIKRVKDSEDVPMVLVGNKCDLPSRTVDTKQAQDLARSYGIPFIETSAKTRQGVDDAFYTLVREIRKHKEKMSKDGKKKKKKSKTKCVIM
Assay: HiBiT Degradation Assay (G12D), AsPC-1 HiBiT-KRasG12D cells, 24 hr
Type: cell-based
Conditions: AsPC-1 cells
Let's look at some compounds and their measured DC50.

Known results for compounds:
• C#Cc1c(F)ccc2cc(O)cc(-c3ncc4c(N5CC6CCC(C5)N6)nc(OCC5(CN6CCC(CC7CCN(c8ccc9c(c8Cl)CN(C8CCC(=O)NC8=O)C9=O)CC7)CC6)CC5)nc4c3F)c12 (centres unmarked) = < 5.1 µM
• CCc1cccc2cc(O)cc(-c3ncc4c(N5CC6CCC(C5)N6)nc(OCCN5CCN(c6cc(OC)c7c(c6)C(=O)N(C6CCC(=O)NC6=O)C7=O)CC5)nc4c3F)c12 (centres unmarked) = > 1 µM
• C#Cc1c(F)ccc2cc(O)cc(-c3ncc4c(N5CC6CCC(C5)N6)nc(OC[C@@H]5C[C@@H](OC6CCN(CC7CCN(c8ccc9c(c8)n(C(C)C)c(=O)n9C8CCC(=O)NC8=O)CC7)CC6)CN5C)nc4c3F)c12 (some centres unmarked) = < 5.1 µM
• C#Cc1c(F)ccc2cc(O)cc(-c3ccc4c(N5CC6CCC(C5)N6)nc(OCCN5CCC(CC6CCN(CC7CCN(c8ccc9c(c8)n(C)c(=O)n9C8CCC(=O)NC8=O)CC7)CC6)CC5)nc4c3F)c12 (centres unmarked) = < 5.1 µM

Now consider a different compound.
Req: Give measured DC50 for C#Cc1c(F)ccc2cc(O)cc(-c3ncc4c(N5CC6CCC(C5)N6)nc(OC[C@@H](C)N5CCC(CC6CCN(CC7CCN(c8ccc9c(c8F)CN(C8CCC(=O)NC8=O)C9=O)CC7)CC6)CC5)nc4c3F)c12 (some centres unmarked) (KRas-G12D (Homo sapiens, UniProt P01116, G12D)).
Resp: < 5.1 µM

###

Let's look at some compounds and their measured DC50.
Molecular target: KRas-G12D (Homo sapiens, UniProt P01116, G12D)
Construct: insert the HiBiT tag onto the N-terminus of one or more of the endogenous KRas alleles; host or cells: AsPC-1 HiBiT-KRasG12D knock-in clone (one tagged allele, two untagged KRasG12D alleles)
Assay: HiBiT Degradation Assay (G12D), AsPC-1 HiBiT-KRasG12D cells, 24 hr
Type: cell-based
Settings: AsPC-1 cells

* C#Cc1c(F)ccc2cccc(-c3ncc4c(N5CC6CCC(C5)N6)nc(OCCN5CCC6(CC5)CCN(CC5CCN(c7ccc8c(c7F)CN(C7CCC(=O)NC7=O)C8=O)CC5)CC6)nc4c3F)c12 (stereo not shown) [Compound 156] | > 1 µM
* C#Cc1c(F)ccc2cc(O)cc(-c3nc(N4CC5CCC(C4)N5)c4cnc(OCCN5CCC6(CC5)CCN(CC5CCN(c7ccc8c(c7)CN(C7CCC(=O)NC7=O)C8=O)CC5)CC6)nc4c3F)c12 (stereo not shown) [Compound 134] | < 5.1 µM
* CCc1cccc2cc(O)cc(-c3ncc4c(N5CC6CCC(C5)N6)nc(OCCN5CCN(c6ccc(C(=O)NC7CCC(=O)NC7=O)c(F)c6)CC5)nc4c3F)c12 (stereo not shown) [Compound 37] | > 1 µM

Req: Complete the entry with DC50 for C#Cc1c(F)ccc2cc(O)cc(-c3ncc4c(N5CC6CCC(C5)N6)nc(OC[C@@H]5C[C@@H](OC6CCN(CC7CCN(c8ccc9c(c8F)CN(C8CCC(=O)NC8=O)C9=O)CC7)CC6)CN5C)nc4c3F)c12 (stereo partly shown) [Compound 122]
Resp: < 5.1 µM

Req: Complete the entry with DC50 for C#Cc1c(F)ccc2cccc(-c3ncc4c(N5CC6CCC(C5)N6)nc(OCC5(CN6CCC(F)(CN7CCN(c8ccc9c(c8)n(C)c(=O)n9C8CCC(=O)NC8=O)CC7)CC6)CC5)nc4c3F)c12 (stereo not shown) [Compound 228]
Resp: < 5.1 µM
